biological target: ghrelin receptor WT (Homo sapiens, UniProt Q92847, N188Q); construct: Full-length human ghrelin receptor was used for the mutagenesis; test: [3H]-Compound 21 saturation binding, WT; conditions: HEK293 membranes, on ice 1 h, pH7.5; mean ± s.d., three independent experiments
Sequence (Q92847 whole entry N188Q): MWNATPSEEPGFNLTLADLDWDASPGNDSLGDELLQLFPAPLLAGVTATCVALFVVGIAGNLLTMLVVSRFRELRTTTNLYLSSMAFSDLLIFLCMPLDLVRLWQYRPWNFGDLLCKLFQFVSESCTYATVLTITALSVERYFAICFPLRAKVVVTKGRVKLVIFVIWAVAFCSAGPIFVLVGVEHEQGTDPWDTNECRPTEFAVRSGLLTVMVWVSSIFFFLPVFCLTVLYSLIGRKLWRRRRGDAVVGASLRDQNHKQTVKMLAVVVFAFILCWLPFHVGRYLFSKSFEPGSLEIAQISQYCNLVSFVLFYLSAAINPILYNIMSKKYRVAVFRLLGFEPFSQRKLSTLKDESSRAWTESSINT
Quantity Name: Kd (nM)
The reply should contain only the number, in nM.

**Q:** Param item = Cc1nc2ccc(Oc3ccc(Br)cc3F)nc2c(=O)n1CC1CCCN(C(C)C)C1 (stereo not shown) ; retrieve measured Kd.
**A:** 4.42
